# Tested on: IL-17A-induced G-CSF production in human normal keratinocyte (NHK)
# test-method-notes: NHK Assay: IL-17A-induced G-CSF production in human normal keratinocytes
# Assay type: cell-based
# reported-conditions: adult normal human keratinocytes, IL-17A 5 ng/mL, 24 h, simple average if tested more than once
# Protocol: IL-17A acts directly on keratinocytes through binding to dimeric receptor IL-17RA/RC and drives the production of a number of inflammatory mediators known to be elevated in psoriasis lesional tissue. IL-17A small molecule inhibitors that block the IL-17A to interact with IL-17R would inhibit the IL-17A signaling in its targeted cells such as keratinocytes. The compound functional activity is evaluated for its impact on IL-17A-induced G-CSF production in human normal keratinocyte (NHK). […]
The molecules listed here are annotated with their pIC50.
Quick note: pIC50 means taking -log10 of the concentration in moles per liter.

| molecule | pIC50 |
| --- | --- |
| CCC(CC(=O)N[C@@H](c1cnn2cc([C@@H](NC(=O)c3nonc3C)C3CCC(F)(F)CC3)nc2c1)C1CC1)CC(F)(F)F (single isomer, unassigned) [Example 343] | 6.37 |

Read the next record carefully.
Endpoint output: pIC50 of Cc1nonc1C(=O)N[C@H](c1cn2ncc([C@H](NC(=O)C(F)C3CCC3)C3CC3)cc2n1)C1CCC(F)(F)CC1 (single isomer, unassigned) [Example 349] . Value?
5.77

* * *

# measured-target: IL-17A(FLAG-Tagged): IL-17RA(His-Tagged) (Homo sapiens, UniProt Q16552, K93Q)
# Sequence (Q16552 with tags, fused parts or gaps K93Q): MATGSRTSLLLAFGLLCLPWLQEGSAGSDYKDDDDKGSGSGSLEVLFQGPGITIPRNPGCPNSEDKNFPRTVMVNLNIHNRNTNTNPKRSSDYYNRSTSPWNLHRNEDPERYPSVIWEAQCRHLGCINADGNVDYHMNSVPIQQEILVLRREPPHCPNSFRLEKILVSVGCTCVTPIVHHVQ
# test-method-notes: IL-17A(FLAG-Tagged): IL-17RA(His-Tagged) Binding Disruption Eu-HTRF Assay
# reported-conditions: IL-17A/IL-17RA binding disruption, simple average if tested more than once
The compounds listed here are annotated with their pIC50.
Quick note: pIC50 means taking -log10 of the concentration in moles per liter.

Worked cases, answers included:
| compound | pIC50 |
| --- | --- |
| Cc1c(C(=O)N[C@H](c2cn3ncc(C(NC(=O)CCC(F)(F)F)C4CC4)cc3n2)C2CCC(F)(F)CC2)cnn1CCC(F)(F)F (single isomer, unassigned) [Example 54] | 6.49 |
| O=C(CCC(F)(F)F)N[C@@H](c1cnn2cc([C@@H](NC(=O)[C@H]3C[C@H]3CF)C3CCC(F)(F)CC3)nc2c1)C1CC1 (relative stereo) [Example 364] | 5.68 |
| [2H]C([2H])([2H])C([2H])([2H])n1nccc1C(=O)N[C@H](c1cn2ncc([C@H](NC(=O)CCC(F)F)C3CC3)cc2n1)C1CCC(F)(F)CC1 [Example 282] | 6.80 |
| Cc1cncc(C(=O)N[C@H](c2cn3ncc([C@H](NC(=O)CCC(F)(F)F)C4CC4)cc3n2)C2CCC(F)(F)CC2)c1 [Example 454] | 6.49 |

Read the next record carefully.
Endpoint output: pIC50 of Cc1nonc1C(=O)N[C@H](c1cn2ncc([C@H](NC(=O)CCC3CC3(F)F)C3CC3)cc2n1)C1CCC(F)(F)CC1 (some centres unmarked) [Example 290] . Value?
7.08

* * *

The compounds listed here are annotated with their pIC50.
# measured-target: IL-17A(FLAG-Tagged): IL-17RA(His-Tagged) (Homo sapiens, UniProt Q16552, K93Q)
# test-method-notes: IL-17A(FLAG-Tagged): IL-17RA(His-Tagged) Binding Disruption Eu-HTRF Assay
# reported-conditions: IL-17A/IL-17RA binding disruption, simple average if tested more than once
Quick note: pIC50 means taking -log10 of the concentration in moles per liter.

| compound | pIC50 |
| --- | --- |
| O=C(CC1CC(F)(F)C1)N[C@@H](c1cnn2cc([C@@H](NC(=O)c3nonc3OCC(F)F)C3CCC(F)(F)CC3)nc2c1)C1CC1 | 7.25 |
| Cc1nonc1C(=O)N[C@H](c1cn2ncc([C@H](NC(=O)CCC(F)(F)F)C3CC3)cc2n1)C1CCC(F)(F)CC1 | 7.44 |
| CCC(NC(=O)CC1CC(F)(F)C1)c1cnn2cc([C@@H](NC(=O)c3nonc3C3CC3)C3CCC(F)(F)CC3)nc2c1 (single isomer, unassigned) | 7.25 |
| Cc1nonc1C(=O)N[C@H](c1cn2ncc([C@H](NC(=O)C(F)C3CCC3)C3CC3)cc2n1)C1CCC(F)(F)CC1 (single isomer, unassigned) [Example 348] | 7.16 |
| CC(C)c1nocc1C(=O)N[C@H](c1cn2ncc([C@H](NC(=O)CCC(F)(F)F)C3CC3)cc2n1)C1CCC(F)(F)CC1 | 7.17 |
| CC(C)n1nccc1C(=O)N[C@H](c1cn2ncc([C@H](NC(=O)C34CC(F)(C3)C4)C3CC3)cc2n1)C1CCC(F)(F)CC1 | 6.12 |

Read the next record carefully.
Endpoint output: pIC50 of O=C(CCC(F)(F)F)N[C@@H](c1cnn2cc([C@@H](NC(=O)c3cnn(CC4CCC4(F)F)n3)C3CCC(F)(F)CC3)nc2c1)C1CC1 (stereo partly shown) . Value?
7.00
